- ASSAY_INFO: Stability of the compound in PBS containing 10% DMSO at 37 degC measured after 24 hrs by HPLC analysis
- Type: physicochemical
- EXPERIMENTAL_CONTEXT: PBS containing 10% DMSO; read-out: Stability
QUANTITY: remaining at 24 h (%)
Answers are plain numbers, in %.

Below, 2 molecules whose answers are already recorded.
C[C@H]1CC[C@H](NC(=O)CSc2nc3ccccc3c(=O)[nH]2)CC1
51
O=C(CSc1nc2ccccc2c(=O)[nH]1)NCC1CCCCC1
104

API: the following record is the query input.
IN: Look up and report measured remaining at 24 h for this entry: O=C(CSc1nc2ccccc2c(=O)[nH]1)NC1CCCCCC1
OUT: 66

====

- ASSAY_INFO: Cytotoxicity against human HaCaT cells assessed as cell viability at 10 ug/ml after 72 hrs by MTT assay (reference value: 100%)
- Assay type: cell-based
- EXPERIMENTAL_CONTEXT: read-out: Activity
QUANTITY: viability at 72 h, 10 ug/ml (%)
Give bare numbers, in %.

O=C(CSc1nc2ccccc2c(=O)[nH]1)NCC1CCCCC1
98
O=C(CSc1nc2ccccc2c(=O)[nH]1)NC1CCCCC1
100
O=C(CSc1nc2ccccc2c(=O)[nH]1)NC1CCCCCC1
100
C[C@H]1CC[C@H](NC(=O)CSc2nc3ccccc3c(=O)[nH]2)CC1
97

IN: Look up and report measured viability at 72 h, 10 ug/ml for this entry: CC1CCCCC1NC(=O)CSc1nc2ccccc2c(=O)[nH]1 (stereo not given)
OUT: 100

====

- System: Mycobacterium tuberculosis
- ASSAY_INFO: Antitubercular activity against Mycobacterium tuberculosis H37Rv ATCC 27294 after 7 days by resazurin dye based assay
- Format: functional
- EXPERIMENTAL_CONTEXT: H37Rv ATCC 27294, 168 h
QUANTITY: MIC

O=C(CSc1nc2ccccc2[nH]1)Nc1ccc2ccccc2c1
> 75 µM

Provide the reported MIC of each entry below, same order.
1. C[C@H](NC(=O)CSc1nc2ccccc2c(=O)[nH]1)C1CCCCC1
2. COc1ccc(NC(=O)CSc2nc3ccccc3c(=O)[nH]2)cc1
3. COc1ccccc1NC(=O)CSc1nc2ccccc2[nH]1
4. O=C(CSc1nc2ccccc2[nH]1)NC1CCCCC1
5. O=C(CSc1nc2ccccc2c(=O)[nH]1)Nc1ccc(F)cc1

OUT:
> 28.9 µM
> 29.3 µM
> 31.9 µM
> 31.3 µM
> 30.4 µM

====

Record form. Attribute: MIC. Fill in for each entry.
- Tested on: Mycobacterium tuberculosis
- ASSAY_INFO: Antitubercular activity against Mycobacterium tuberculosis H37Rv ATCC 27294 after 7 days by resazurin dye based assay
- Assay type: functional
- EXPERIMENTAL_CONTEXT: H37Rv ATCC 27294, 168 h

Below, 3 molecules whose answers are already recorded.
O=C(CSc1nc(O)c2ccccc2n1)Nc1ccc(Br)cc1
> 25.6 µM
C[C@@H](NC(=O)CSc1nc2ccccc2c(=O)[nH]1)C1CCCCC1
> 28.9 µM
O=C(CSc1nc(O)c2ccccc2n1)Nc1ccc([N+](=O)[O-])cc1
> 28.1 µM

Provide the reported MIC of each entry below, same order.
1. O=C(CSc1nc2ccccc2[nH]1)Nc1ccc2c(c1)CCC2
2. CCCCCCCc1ccc(NC(=O)CSc2nc3ccccc3[nH]2)cc1

OUT:
> 29.6 µM
> 65.5 µM
